biological target: MtSerB2 (phosphoserine phosphatase SerB2) (Mycobacterium tuberculosis, UniProt O53289); construct: full-length dimer fraction, His-tag cleaved; assay: steady-state kinetics, malachite green phosphatase assay; SEC-UV/SAXS dimer-to-trimer shift
Sequence (O53289 whole entry): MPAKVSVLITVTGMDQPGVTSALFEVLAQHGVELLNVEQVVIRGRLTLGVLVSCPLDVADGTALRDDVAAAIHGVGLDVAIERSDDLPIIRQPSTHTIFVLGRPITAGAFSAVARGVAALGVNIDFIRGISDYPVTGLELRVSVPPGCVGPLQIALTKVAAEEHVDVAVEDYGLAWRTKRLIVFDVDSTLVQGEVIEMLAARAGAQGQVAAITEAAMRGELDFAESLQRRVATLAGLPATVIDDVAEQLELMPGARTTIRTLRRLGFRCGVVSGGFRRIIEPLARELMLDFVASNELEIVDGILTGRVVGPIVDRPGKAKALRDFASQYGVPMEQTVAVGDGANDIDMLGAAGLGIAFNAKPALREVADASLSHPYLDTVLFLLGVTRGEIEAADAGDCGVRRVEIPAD

{"columns": ["Compound", "Ki"],
 "data": [
  ["N[C@@H](CO)C(=O)O [L-Ser]", "22 µM"]
]}

Cited source for all entries: paper PMC10564941
